- Test system: rat liver mitochondria (RLM)
- experiment: Mitochondrial transmembrane electric potential (ΔΨ) of RLM, safranine fluorescence
- Type: biochemical
- reported conditions: glutamate/malate; 5 μM
Item-by-item account of ADP-induced depolarization (ΔΨ in - mV)
quantity name: ADP-induced depolarization (ΔΨ in - mV)

{"columns": ["compound", "measurement"],
 "data": [
  ["CS(=O)(=O)[O-].O=C(/C=C/c1cc(O)c(O)c(O)c1)NCCCCCC[P+](c1ccccc1)(c1ccccc1)c1ccccc1 [AntiOxCIN4]", "193.8 ± 11.8 mV"],
  ["CS(=O)(=O)[O-].O=C(/C=C/c1cc(O)c(O)c(O)c1)NCCCCCCCC[P+](c1ccccc1)(c1ccccc1)c1ccccc1 [AntiOxCIN5]", "207.5 ± 5.6 mV"],
  ["CS(=O)(=O)[O-].O=C(/C=C/c1ccc(O)c(O)c1)NCCCCCCCCCC[P+](c1ccccc1)(c1ccccc1)c1ccccc1 [AntiOxCIN6]", "197.9 ± 5.0 mV"],
  ["CS(=O)(=O)[O-].O=C(/C=C/c1ccc(O)c(O)c1)NCCCCCCCC[P+](c1ccccc1)(c1ccccc1)c1ccccc1 [AntiOxCIN3]", "200.7 ± 5.5 mV"],
  ["CS(=O)(=O)[O-].O=C(/C=C/c1cc(O)c(O)c(O)c1)NCCCCCCCCCC[P+](c1ccccc1)(c1ccccc1)c1ccccc1 [AntiOxCIN7]", "212.6 ± 3.2 mV"],
  ["COC1=C(OC)C(=O)C(CCCCCCCCCC[P+](c2ccccc2)(c2ccccc2)c2ccccc2)=C(C)C1=O.CS(=O)(=O)[O-] [MitoQ, reference compound]", "173.5 ± 8.9^ mV"],
  ["CS(=O)(=O)[O-].O=C(/C=C/c1ccc(O)c(O)c1)NCCCCCC[P+](c1ccccc1)(c1ccccc1)c1ccccc1 [AntiOxCIN2]", "199.2 ± 13.3 mV"]
]}
